- System: SW 480 human colorectal cancer cell line
- assay-summary: Effects on SW 480 cancer cell line
- experimental-setup: Homo sapiens, SW480
pIC50: −log10 of the molar value.
quantity-name: pIC50

Query: # lookup: pIC50 of `O=c1[nH]cc(F)c(=O)[nH]1`
Reply: ~5.00
